Data origin, for the record: patent US10947210B2

molecular target: HCV RNA-dependent RNA polymerase (NS5B) (Hepatitis C virus genotype 1b (isolate BK) (HCV), UniProt P26663); test: RNA-Dependent RNA HCV NS5B (polymerase) Assay and IC50 Determination; type: biochemical; conditions: purified HCV NS5B polymerase, polyA:U16 substrate, 32P-UTP incorporation; read-out: IC50
Sequence (P26663 2420-3010): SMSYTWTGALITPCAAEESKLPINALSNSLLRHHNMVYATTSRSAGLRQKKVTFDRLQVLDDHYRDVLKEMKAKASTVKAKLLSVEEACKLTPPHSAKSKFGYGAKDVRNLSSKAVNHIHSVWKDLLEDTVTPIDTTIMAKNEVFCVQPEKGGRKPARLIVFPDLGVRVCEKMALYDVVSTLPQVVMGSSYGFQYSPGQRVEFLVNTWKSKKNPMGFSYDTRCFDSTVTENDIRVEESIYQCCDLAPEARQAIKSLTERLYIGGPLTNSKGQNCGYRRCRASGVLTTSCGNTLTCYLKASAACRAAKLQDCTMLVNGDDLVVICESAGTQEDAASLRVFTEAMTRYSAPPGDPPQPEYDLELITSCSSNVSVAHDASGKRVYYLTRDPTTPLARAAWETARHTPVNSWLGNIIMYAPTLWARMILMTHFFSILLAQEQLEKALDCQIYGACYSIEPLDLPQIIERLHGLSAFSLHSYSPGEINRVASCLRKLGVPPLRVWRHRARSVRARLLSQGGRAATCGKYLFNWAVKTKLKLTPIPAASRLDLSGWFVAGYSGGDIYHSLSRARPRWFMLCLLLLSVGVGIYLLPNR
pIC50: −log10 of the molar value.
property: pIC50

Consider the worked cases shown below.
| compound | property | endpoint-result |
| --- | --- | --- |
| CNC(=O)c1c(-c2ccc(F)cc2)oc2cc(N(CCOCCCOCc3cccc(C(=O)/C=C(\O)C(=O)O)c3)S(C)(=O)=O)c(C3CC3)cc12 | pIC50 | < 6.00 |
| CNC(=O)c1c(-c2ccc(F)cc2)oc2cc(N(CCOCCOCCOCCOCCOCc3ccc(C(=O)/C=C(\O)C(=O)O)cc3)S(C)(=O)=O)c(C3CC3)cc12 [Compound 02-10I] | pIC50 | < 6.00 |
| CNC(=O)c1c(-c2ccc(F)cc2)oc2cc(N(CCOCCOCCOCCOCCOCCOCc3ccc(C(=O)O)cc3)S(C)(=O)=O)c(C3CC3)cc12 | pIC50 | < 6.00 |

Req: # input compound: CCOC(=O)c1ccc(COCCOCCN(c2cc3oc(-c4ccc(F)cc4)c(C(=O)NC)c3cc2C2CC2)S(C)(=O)=O)cc1 ; wanted: its pIC50
Resp: < 6.00

Req: Reported pIC50, compound CNC(=O)c1c(-c2ccc(F)cc2)oc2cc(N(CCOCCOCc3ccc(OC)c(C(=O)O)c3)S(C)(=O)=O)c(C3CC3)cc12 [Compound 17B-8] : ____
Resp: 6.00 to 7.00

Req: Please report the recorded pIC50 for CNC(=O)c1c(-c2ccc(F)cc2)oc2cc(N(CCOCCOCCOCCCCc3cccc(C(=O)CC(=O)C(=O)O)c3)S(C)(=O)=O)c(C3CC3)cc12 .
Resp: < 6.00
